- Tested on: ZIKV replicon
- assay overview: ZIKV replication inhibition assay (NanoLuc replicon in Vero cells)
- settings: Zika virus, Vero, 72 h, read-out: ZIKA Cell_Nanoluc, Vero cells with stable ZIKV replicon, 72 h, Nano-Glo readout
parameter measured: EC50

Some solved cases for reference:
Request: Return value of EC50 for input `COc1ncc(-c2ccc(C[n+]3cc([N-]C(=O)Nc4cc(NS(=O)(=O)CC5CCCCC5)cc(C(F)(F)F)c4)on3)cc2)c(C)n1` , no commentary.
Response: > 20000 nM

Request: Return value of EC50 for input `Cc1nc(CC(=O)Nc2cc(NC(=O)[N-]c3c[n+](Cc4ccccn4)no3)cc(C(F)(F)F)c2)cs1` , no commentary.
Response: 1000 to 20000 nM

Request: Return value of EC50 for input `Cc1ccccc1CC(=O)Nc1cc(NC(=O)[N-]c2c[n+]([C@@H]3CCC[C@H](N(C)C)C3)no2)cc(C(F)(F)F)c1` , no commentary.
Response: 1000 to 20000 nM

Request: Return value of EC50 for input `Cc1ncnc(C)c1-c1ccc(C[n+]2cc([N-]C(=O)Nc3ccnc(C(C)(C)C)c3)on2)cc1` , no commentary.
Response: 1000 to 20000 nM

Request: Return value of EC50 for input `COc1ncc(-c2ccc(C[n+]3cc([N-]C(=O)Nc4cc(NC(=O)Cc5cccnc5)cc(C(F)(F)F)c4)on3)cc2)c(C)n1` , no commentary.
Response: 1000 to 20000 nM

Provide the reported EC50 of each entry below, same order.
1. NCc1ccccc1C[n+]1cc([N-]C(=O)Nc2cc(NC(=O)Cc3ccccc3)cc(C(F)(F)F)c2)on1
2. O=C([N-]c1c[n+]([C@H]2CCC[C@@H](c3cncnc3)C2)no1)Nc1ccnc(C(F)(F)F)c1
3. O=C(Cc1ccccc1)Nc1cc(NC(=O)[N-]c2c[n+](Cc3ccccn3)no2)cc(C(F)(F)F)c1
4. COc1ncc(-c2ccc(C[n+]3cc([N-]C(=O)Nc4cc(NC(=O)Cc5ccccc5Cl)cc(C(F)(F)F)c4)on3)cc2)c(C)n1

Response:
1. 1000 to 20000 nM
2. 100 to 1000 nM
3. 100 to 1000 nM
4. 100 to 1000 nM

###

Listed here: molecules with reported IC50 for West Nile Virus (WNV) NS2B-NS3 protease (West Nile virus, UniProt Q9Q6P4).

Some solved cases for reference:
Request: Return value of IC50 for input Cc1ccccc1CC(=O)Nc1cc(NC(=O)[N-]c2c[n+]([C@@H]3CCC[C@H](C(=O)N(C)C)C3)no2)cc(C(F)(F)F)c1 [Example 234] , no commentary.
Response: 0.1 to 1 µM

Request: Return value of IC50 for input `Cc1ncnc(C)c1-c1ccc(C[n+]2cc([N-]C(=O)Nc3ccc(C#N)c(C(F)(F)F)c3)on2)cc1` , no commentary.
Response: 0.1 to 1 µM

Request: Return value of IC50 for input `Cc1cnn(C2COC2)c1-c1ccc(C[n+]2cc([N-]C(=O)Nc3ccnc(C(F)(F)F)c3)on2)cc1` , no commentary.
Response: < 0.1 µM

Request: Return value of IC50 for input CCC(C(=O)Nc1cc(NC(=O)[N-]c2c[n+]([C@H]3CC[C@H](CN(C)C)CC3)no2)cc(C(F)(F)F)c1)c1ccccc1 (stereo partly shown) , no commentary.
Response: 0.1 to 1 µM

Request: Return value of IC50 for input `Cc1ncnc(C)c1-c1ccc(C[n+]2cc([N-]C(=O)Nc3ccc(O)c(C(F)(F)F)c3)on2)cc1` , no commentary.
Response: < 0.1 µM

Provide the reported IC50 of each entry below, same order.
1. Cc1cn(C2COC2)nc1-c1ccc(C[n+]2cc([N-]C(=O)Nc3ccnc(C(F)(F)F)c3)on2)cc1
2. Cc1ccccc1CC(=O)Nc1cc(NC(=O)[N-]c2c[n+](C[C@H]3CCCC[C@H]3O)no2)cc(C(F)(F)F)c1
3. Cc1ccccc1CC(=O)Nc1cc(NC(=O)[N-]c2c[n+]([C@@H]3CCC[C@H](O)C3)no2)cc(C(F)(F)F)c1
4. CN(C)C[C@H]1CC[C@H]([n+]2cc([N-]C(=O)Nc3cc(NC(=O)Cc4ccccc4Cl)cc(C(F)(F)F)c3)on2)CC1
5. Cc1ncnc(C)c1-c1ccc(C[n+]2cc([N-]C(=O)N[C@@H]3CC[C@@H](C(F)(F)F)C3)on2)cc1 (racemic)

Response:
1. 0.1 to 1 µM
2. < 0.1 µM
3. 0.1 to 1 µM
4. < 0.1 µM
5. 0.1 to 1 µM

Provide the reported IC50 of each entry below, same order.
1. CN(C)C[C@H]1CC[C@H]([n+]2cc([N-]C(=O)Nc3cc(NC(=O)CS(=O)(=O)c4ccccc4)cc(C(F)(F)F)c3)on2)CC1
2. CN1c2ccccc2CCC1C[n+]1cc([N-]C(=O)Nc2ccnc(C(F)(F)F)c2)on1 (racemic)
3. CN(C)C[C@H]1CC[C@H]([n+]2cc([N-]C(=O)Nc3cc(NC(=O)Cc4ccccc4C(F)(F)F)cc(C(F)(F)F)c3)on2)CC1

Response:
0.1 to 1 µM
0.1 to 1 µM
0.1 to 1 µM

###

- Tested on: ZIKV replicon
- assay overview: ZIKV replication inhibition assay (NanoLuc replicon in Vero cells)
- settings: Zika virus, Vero, 72 h, read-out: ZIKA Cell_Nanoluc, Vero cells with stable ZIKV replicon, 72 h, Nano-Glo readout
parameter measured: EC50

Provide the reported EC50 of each entry below, same order.
1. O=C([N-]c1c[n+](CC23CCC(c4cncnc4)(CC2)C3)no1)Nc1ccnc(C(F)(F)F)c1
2. O=C([N-]c1c[n+](CC23CC(c4cncnc4)(C2)C3)no1)Nc1cccc(C(F)(F)F)c1
3. CC(c1ccc(C(=O)Nc2cc(NC(=O)[N-]c3c[n+](Cc4ccccn4)no3)cc(C(F)(F)F)c2)cc1)S(N)(=O)=O (stereo not shown)
4. O=C(Cc1ccccc1)Nc1cc(Cl)cc(NC(=O)[N-]c2c[n+](Cc3ccccn3)no2)c1

Response:
1: 1000 to 20000 nM; 2: 100 to 1000 nM; 3: > 20000 nM; 4: 1000 to 20000 nM

###

Please respond with reported IC50 for every item in the list.
- study system: Japanese encephalitis virus (JEV)-NS2B-NS3 protease (Japanese encephalitis virus, UniProt P32886, DEL1469-1493)
- assay overview: JEV protease inhibition assay
- Type: biochemical
- settings: read-out: JEV - NS3 protease; 600 nM enzyme, 10 µM Pyr-RTKR-AMC substrate, 25 °C

Some solved cases for reference:
Request: Return value of IC50 for input `CN(C)C[C@H]1CC[C@H]([n+]2cc([N-]C(=O)Nc3cc(NC(=O)Cc4ccccc4)cc(C(F)(F)F)c3)on2)CC1` , no commentary.
Response: 1 to 20 µM

Request: Return value of IC50 for input `COc1ncc(-c2ccc(C[n+]3cc([N-]C(=O)Nc4cc(NC(=O)Cc5ccc(CN)cc5)cc(C(F)(F)F)c4)on3)cc2)c(C)n1` , no commentary.
Response: > 20 µM

Request: Return value of IC50 for input `COc1ncc(-c2ccc(C[n+]3cc([N-]C(=O)Nc4cc(NC(=O)Cc5noc6ccccc56)cc(C(F)(F)F)c4)on3)cc2)c(C)n1` , no commentary.
Response: > 20 µM

Request: Return value of IC50 for input `COc1ncc(-c2ccc(C[n+]3cc([N-]C(=O)Nc4cc(NC(=O)Cc5ccc(Cl)cc5)cc(C(F)(F)F)c4)on3)cc2)c(C)n1` , no commentary.
Response: > 20 µM

---
Request: Return value of IC50 for input `COc1ncc(-c2ccc(C[n+]3cc([N-]C(=O)Nc4cc(NC(=O)c5ccccc5)cc(C(F)(F)F)c4)on3)cc2)c(C)n1` , no commentary.
Response: 1 to 20 µM

###

- Tested on: ZIKV replicon
- assay overview: ZIKV replication inhibition assay (NanoLuc replicon in Vero cells)
- settings: Zika virus, Vero, 72 h, read-out: ZIKA Cell_Nanoluc, Vero cells with stable ZIKV replicon, 72 h, Nano-Glo readout
parameter measured: EC50

Some solved cases for reference:
Request: Return value of EC50 for input `Cc1nn(C)cc1-c1ccc(C[n+]2cc([N-]C(=O)Nc3ccnc(C(F)(F)F)c3)on2)cc1` , no commentary.
Response: 1 to 20 µM

Request: Return value of EC50 for input `O=C([N-]c1c[n+](Cc2ccccn2)no1)Nc1cc(NCCc2ccccc2)cc(C(F)(F)F)c1` , no commentary.
Response: 1 to 20 µM

Request: Return value of EC50 for input `Cc1ccccc1CC(=O)Nc1cc(NC(=O)[N-]c2c[n+]([C@@H]3CCC[C@H](C(N)=O)C3)no2)cc(C(F)(F)F)c1` , no commentary.
Response: 1 to 20 µM

Provide the reported EC50 of each entry below, same order.
1. Cc1nc(-c2ccc(C[n+]3cc([N-]C(=O)Nc4ccnc(C(F)(F)F)c4)on3)cc2)cs1
2. Cc1ccccc1CC(=O)Nc1cc(NC(=O)[N-]c2c[n+](C[C@@H]3CCCC[C@H]3O)no2)cc(C(F)(F)F)c1
3. Cc1ncnc(C)c1-c1ccc(C[n+]2cc([N-]C(=O)N[C@H]3CC[C@@]4(C3)CC4(F)F)on2)nc1 (racemic)
4. COc1ncc(-c2ccc(C[n+]3cc([N-]C(=O)Nc4cc(NS(=O)(=O)Cc5ccccc5)cc(C(F)(F)F)c4)on3)cc2)c(C)n1

Response:
1. 1 to 20 µM
2. 0.1 to 1 µM
3. 1 to 20 µM
4. 0.1 to 1 µM
